# method: Multiple ascending dose study, plasma pharmacokinetics
# Type: in vivo, human (healthy volunteers)
# condition.notes: human, plasma, po, 1 mg, 1.0 mg oral QD, Day 12; read-out: Cmax (mean)
# Procedure: A clinical study was developed to evaluate safety, tolerability, pharmacokinetics, and pharmacodynamics of Compound 1 at plasma steady-state in 40 healthy human volunteers. […] Blood samples were collected, and plasma concentrations were measured using a validated high performance liquid chromatography/liquid chromatography-mass spectrometry/mass spectrometry method. […]

{"columns": ["molecule.smiles", "Cmax at 288 h (ng/mL)"],
 "data": [
  ["CC(C)(O)c1cnn2c(-c3ccc(F)c(-c4c(F)cccc4C#N)c3)cnc2n1", 23.3]
]}

====

# method: Multiple ascending dose study, plasma pharmacokinetics
# Format: in vivo, human (healthy volunteers)
# condition.notes: human, plasma; 1.5 mg oral QD, Day 12; read-out: Tmax (median)
observation.type: Tmax at 288 h (h)

{"columns": ["molecule.smiles", "observed.result"],
 "data": [
  ["CC(C)(O)c1cnn2c(-c3ccc(F)c(-c4c(F)cccc4C#N)c3)cnc2n1", 3]
]}

====

# method: Multiple ascending dose study, plasma pharmacokinetics
# Format: in vivo, human (healthy volunteers)
# condition.notes: human, plasma, po, 1.5 mg, 1.5 mg oral QD, Day 1; read-out: Cmax (mean)
# Method: A clinical study was developed to evaluate safety, tolerability, pharmacokinetics, and pharmacodynamics of Compound 1 at plasma steady-state in 40 healthy human volunteers. […] Blood samples were collected, and plasma concentrations were measured using a validated high performance liquid chromatography/liquid chromatography-mass spectrometry/mass spectrometry method. […]

{"columns": ["compound", "Cmax at 24 h / ng/mL"],
 "data": [
  ["CC(C)(O)c1cnn2c(-c3ccc(F)c(-c4c(F)cccc4C#N)c3)cnc2n1 [Compound 1]", 18.8]
]}

====

# method: Multiple ascending dose study, plasma pharmacokinetics
# Type: in vivo, human (healthy volunteers)
# condition.notes: human, plasma; 1.0 mg oral QD, Day 12; read-out: Tmax (median)

{"columns": ["molecule.smiles", "Tmax at 288 h (h)"],
 "data": [
  ["CC(C)(O)c1cnn2c(-c3ccc(F)c(-c4c(F)cccc4C#N)c3)cnc2n1", 3]
]}

====

# method: Multiple ascending dose study, plasma pharmacokinetics
# Assay type: in vivo, human (healthy volunteers)
# condition.notes: human, plasma, po, 2 mg, 2.0 mg oral QD, Day 12; read-out: t1/2 (mean) (converted)
# Procedure: A clinical study was developed to evaluate safety, tolerability, pharmacokinetics, and pharmacodynamics of Compound 1 at plasma steady-state in 40 healthy human volunteers. […] Blood samples were collected, and plasma concentrations were measured using a validated high performance liquid chromatography/liquid chromatography-mass spectrometry/mass spectrometry method. […]

{"columns": ["molecule.smiles", "half-life [h]"],
 "data": [
  ["CC(C)(O)c1cnn2c(-c3ccc(F)c(-c4c(F)cccc4C#N)c3)cnc2n1", 61]
]}
